# target-under-test: T1, MET-Fc (extracellular MET domain fused with human IgG1-Fc) (human, UniProt P08581 25-932)
# T1 construct: extracellular domain; Recombinant chimera; also called recombinant extracellular MET-Fc chimera; hMET-Fc; not shown: human IgG1 Fc
# T1 sequence (P08581 25-932): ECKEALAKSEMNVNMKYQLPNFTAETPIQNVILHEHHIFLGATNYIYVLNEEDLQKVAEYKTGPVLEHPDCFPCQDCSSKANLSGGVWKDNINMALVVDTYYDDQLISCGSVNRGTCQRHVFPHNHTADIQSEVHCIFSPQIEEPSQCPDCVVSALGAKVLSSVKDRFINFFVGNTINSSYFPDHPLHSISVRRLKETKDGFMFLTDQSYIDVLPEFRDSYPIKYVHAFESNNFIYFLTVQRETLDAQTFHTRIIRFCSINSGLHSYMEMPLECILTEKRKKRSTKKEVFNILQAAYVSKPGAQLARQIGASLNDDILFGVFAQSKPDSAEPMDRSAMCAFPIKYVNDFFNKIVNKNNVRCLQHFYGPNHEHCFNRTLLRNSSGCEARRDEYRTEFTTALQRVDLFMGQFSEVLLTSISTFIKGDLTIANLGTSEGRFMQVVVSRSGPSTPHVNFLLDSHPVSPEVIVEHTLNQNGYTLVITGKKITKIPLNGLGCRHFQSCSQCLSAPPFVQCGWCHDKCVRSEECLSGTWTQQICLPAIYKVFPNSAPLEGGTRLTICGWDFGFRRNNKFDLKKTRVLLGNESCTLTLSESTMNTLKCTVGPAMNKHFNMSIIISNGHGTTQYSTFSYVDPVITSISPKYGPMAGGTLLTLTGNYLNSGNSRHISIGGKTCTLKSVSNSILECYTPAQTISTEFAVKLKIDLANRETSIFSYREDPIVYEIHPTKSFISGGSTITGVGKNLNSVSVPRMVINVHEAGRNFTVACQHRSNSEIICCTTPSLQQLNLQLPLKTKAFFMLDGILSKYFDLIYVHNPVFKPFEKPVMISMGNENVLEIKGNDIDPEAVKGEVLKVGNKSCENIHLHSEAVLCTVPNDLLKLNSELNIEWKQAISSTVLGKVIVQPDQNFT
# test-summary: AlphaScreen saturation assay: K1B on streptavidin-coated donor beads, MET-Fc on Protein A-coated acceptor beads (apparent, multivalent display); saturation assay; K1B on streptavidin-coated donor beads (apparent KD, avidity possible)
readout-name: Kd

Check the records and state Kd for K1B (biotinylated K1 domain of HGF/SF, residues 125-209 with C-terminal GGK(biotin) extension) (ligand, C-terminal lysine of the GGK extension modified on its side chain with a biotin group; three native disulfide bonds, also called K1-Biot; biotinylated version of the K1 domain) IRNCIIGKGRSYKGTVSITKSGIKCQPWSSMIPHEHSFLPSSYRGKDLQENYCRNPRGEEGGPWCFTSNPEVRYEVCDIPQCSEVGGK ~16 nM
